# Test system: Yersinia pseudotuberculosis
# experimental_protocol: Effect on T3S in Yersinia pseudotuberculosis 3 pIB29 assessed as inhibition of light emission at 100 uM by luciferase reporter gene assay
Values of inhibition greater than or equal to 60% map to criterion met; values below map to criterion not met.

smiles_entry	class_name
O=C(Nc1ccc2c(c1)OCO2)c1ccc(Cl)cc1NS(=O)(=O)c1ccccc1	criterion not met
CN(C)c1ccc(NC(=O)c2cc(Cl)ccc2NS(=O)(=O)c2ccccc2)cc1	criterion not met
O=C(Nc1ccc2c(c1)OCO2)c1ccc(Cl)cc1NS(=O)(=O)c1ccc(Cl)c(Cl)c1	criterion met
O=C(Nc1ccc(Cl)c(Cl)c1)c1ccccc1NS(=O)(=O)c1cccc2nsnc12	criterion not met
O=C(Nc1ccc(Cl)c(Cl)c1)c1cc(F)c(F)cc1NS(=O)(=O)c1cccc2nsnc12	criterion met
O=C(Nc1ccc(Cl)c(Cl)c1)c1cc(Cl)ccc1NS(=O)(=O)c1ccccc1	criterion met
O=C(Nc1ccc(F)c(F)c1)c1ccc(Cl)cc1NS(=O)(=O)c1cccc2nsnc12	criterion met

###

Quick reference for inhibition among some molecules
# Test system: Yersinia pseudotuberculosis
# experimental_protocol: Effect on T3S in Yersinia pseudotuberculosis 3 pIB29 assessed as inhibition of light emission at 10 uM by luciferase reporter gene assay

smiles_entry	inhibition (%)
O=C(Nc1cccc(Cl)c1)c1cc(Cl)ccc1NS(=O)(=O)c1cccc2nsnc12	3
O=C(Nc1ccc(Cl)c(Cl)c1)c1cc(F)c(F)cc1NS(=O)(=O)c1cccc([N+](=O)[O-])c1	9
O=C(Nc1ccc(F)cc1)c1cc(Cl)ccc1NS(=O)(=O)c1cc(Cl)cc(Cl)c1O	13
O=C(Nc1ccc(Cl)cc1)c1ccccc1NS(=O)(=O)c1cccc2nsnc12	-1
COc1ccc(NC(=O)c2ccc(Cl)cc2NS(=O)(=O)c2ccc(Cl)c(Cl)c2)cc1	43
O=C(Nc1ccc(Cl)c(Cl)c1)c1cc(F)c(F)cc1NS(=O)(=O)c1cccc2nsnc12	9
O=C(Nc1ccc2cccnc2c1)c1cc(Cl)ccc1NS(=O)(=O)c1ccc(Cl)c(Cl)c1	18
CC(=O)c1ccc(S(=O)(=O)Nc2cc(Cl)ccc2C(=O)Nc2ccc(F)c(Cl)c2)cc1	11
O=C(Nc1ccc2cccnc2c1)c1cc(Cl)ccc1NS(=O)(=O)c1ccccc1	0

###

# Tested on: Yersinia pseudotuberculosis
# experimental_protocol: Effect on T3S in Yersinia pseudotuberculosis 3 pIB29 assessed as inhibition of light emission at 10 uM by luciferase reporter gene assay
Each entry gets not satisfied if its inhibition stays under 40%, and satisfied if its inhibition is 40% or above.

smiles_entry	class_name
O=C(Nc1ccc(Cl)c(Cl)c1)c1cc(Cl)ccc1NS(=O)(=O)c1cccc2nsnc12	satisfied
O=C(Nc1ccc(Cl)c(Cl)c1)c1ccccc1NS(=O)(=O)c1cccc2nsnc12	not satisfied
O=C(Nc1ccc(F)c(F)c1)c1cc(F)c(F)cc1NS(=O)(=O)c1cccc([N+](=O)[O-])c1	not satisfied
CN(C)c1ccc(NC(=O)c2cc(Cl)ccc2NS(=O)(=O)c2cccc([N+](=O)[O-])c2)cc1	not satisfied
O=C(Nc1ccc2c(c1)OCO2)c1ccc(Cl)cc1NS(=O)(=O)c1ccc(Cl)c(Cl)c1	not satisfied
O=C(Nc1ccc(Cl)c(Cl)c1)c1ccc(Cl)cc1NS(=O)(=O)c1cccc2nsnc12	not satisfied
O=C(Nc1ccc(F)c(F)c1)c1ccc(Cl)cc1NS(=O)(=O)c1cccc2nsnc12	not satisfied
Cc1ccc(S(=O)(=O)Nc2cc(F)c(F)cc2C(=O)Nc2ccc(Cl)c(Cl)c2)cc1	satisfied
O=C(Nc1ccc(F)cc1)c1cc(F)c(F)cc1NS(=O)(=O)c1cccc(F)c1	not satisfied
CN(C)c1ccc(NC(=O)c2cc(Cl)ccc2NS(=O)(=O)c2ccccc2)cc1	not satisfied
COc1ccc(NC(=O)c2ccc(Cl)cc2NS(=O)(=O)c2cccc(F)c2)cc1	not satisfied
O=C(Nc1ccc(Cl)c(Cl)c1)c1cc(F)c(F)cc1NS(=O)(=O)c1cc(Cl)cc(Cl)c1O	satisfied
O=C(Nc1ccc2c(c1)OCO2)c1ccc(Cl)cc1NS(=O)(=O)c1ccccc1	not satisfied
O=C(Nc1ccccc1)c1cc(Cl)ccc1NS(=O)(=O)c1cccc2nsnc12	not satisfied
O=C(Nc1ccc(F)c(F)c1)c1ccc(Cl)cc1NS(=O)(=O)c1cc(Cl)cc(Cl)c1O	not satisfied
O=C(Nc1ccc(Cl)c(Cl)c1)c1cc(Cl)ccc1NS(=O)(=O)c1ccccc1	satisfied

Data origin, for the record: ChEMBL document CHEMBL1137500
